MEASURED_ON: human histamine H4 receptor (Homo sapiens)
Construct: purchased PerkinElmer Inc; host or cells: CHO-K1
Sequence (Q9H3N8 whole entry): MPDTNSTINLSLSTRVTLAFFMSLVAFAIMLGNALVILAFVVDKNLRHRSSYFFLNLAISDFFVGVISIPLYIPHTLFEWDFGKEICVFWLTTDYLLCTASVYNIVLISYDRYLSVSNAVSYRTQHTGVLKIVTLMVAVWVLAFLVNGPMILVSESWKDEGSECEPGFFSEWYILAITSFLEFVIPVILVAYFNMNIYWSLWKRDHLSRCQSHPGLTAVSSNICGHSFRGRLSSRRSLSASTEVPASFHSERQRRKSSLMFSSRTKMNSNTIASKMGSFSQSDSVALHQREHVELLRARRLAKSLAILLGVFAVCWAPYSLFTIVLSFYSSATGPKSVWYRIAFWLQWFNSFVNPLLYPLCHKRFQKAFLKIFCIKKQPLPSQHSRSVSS
MEASUREMENT_NOTES: Evaluation of Human H4 Receptor Affinity ([3H]histamine binding)
ASSAY_SETUP: inhibition constant Ki, CHO-K1 membrane preparation, read-out: Evaluation of H4 Receptor Affinity
pKi: −log10 of the molar value. Structures can show the parent of a compound that is named as a salt.
RECORDED_ENDPOINT: pKi

Reference set (5 entries):
MOLECULE	pKi
Nc1nc2c(c(N3CCN(CCOC[C@@H]4CC[C@H](C(=O)O)O4)CC3)n1)CCc1cc(OCc3ccc(Cl)cc3)ccc1-2 (relative stereo)	6.30 to 7.00
Nc1nc2c(c(N3CCN(CCOC4CCC(C(=O)O)OC4)CC3)n1)CCc1cc(OCc3ccc(OC(F)(F)F)cc3)ccc1-2 (stereo not drawn)	> 7.00
Nc1nc2c(c(N3CCN(CCOC[C@@H]4CCC[C@H](C(=O)O)C4)CC3)n1)CCc1cc(OCc3ccc(OC(F)(F)F)cc3)ccc1-2 (relative stereo) [Example 186, dihydrochloride]	> 7.00
Nc1nc2c(c(N3CCN(CCOCCOCCN4C(=O)c5ccccc5C4=O)CC3)n1)CCc1cc(OCc3ccc(Cl)cc3)ccc1-2	6.30 to 7.00
CC1(C(=O)O)CCC(OCCN2CCN(c3nc(N)nc4c3CCc3cc(OCc5ccc(Cl)cc5)ccc3-4)CC2)CC1 (stereo not drawn)	> 7.00

QUERY: Can you share its pKi? I mean this molecule: Nc1nc2c(c(N3CCN(CCOCCOCC(=O)O)CC3)n1)CCc1cc(OCc3ccc(Cl)cc3)ccc1-2
RESULT: > 7.00

###

MEASURED_ON: UniProtKB P35367
Sequence (P35367 whole entry): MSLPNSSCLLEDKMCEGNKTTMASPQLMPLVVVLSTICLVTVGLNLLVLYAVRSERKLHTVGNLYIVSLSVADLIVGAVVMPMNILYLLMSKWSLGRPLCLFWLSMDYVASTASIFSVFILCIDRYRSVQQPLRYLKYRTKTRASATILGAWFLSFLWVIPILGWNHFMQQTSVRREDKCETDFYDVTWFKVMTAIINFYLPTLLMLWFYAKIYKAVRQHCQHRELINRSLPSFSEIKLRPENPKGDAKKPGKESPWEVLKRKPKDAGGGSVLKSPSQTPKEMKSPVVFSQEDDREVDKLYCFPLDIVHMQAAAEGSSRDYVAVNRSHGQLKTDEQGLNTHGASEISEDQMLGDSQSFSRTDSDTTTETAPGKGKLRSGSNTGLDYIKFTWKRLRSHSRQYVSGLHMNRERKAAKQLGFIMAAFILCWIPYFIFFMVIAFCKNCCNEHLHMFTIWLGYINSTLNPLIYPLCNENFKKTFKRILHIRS
Counter-ions that a name gives are not always drawn.
RECORDED_ENDPOINT: Ki

COMPOUND	Ki
CNC(=O)COCCOCCN1CCN(c2nc(N)nc3c2CCc2cc(OCc4ccc(Cl)cc4)ccc2-3)CC1 [Example 188, dihydrochloride]	< 100 nM

Need Ki for each of these compounds.
1. Nc1nc2c(c(N3CCN(CCOCC4CCCC(C(=O)O)C4)CC3)n1)CCc1cc(OCc3ccc(OC(F)(F)F)cc3)ccc1-2 (centres unmarked) [Example 185, dihydrochloride]
2. Cn1cc(COCCN2CCN(c3nc(N)nc4c3CCc3cc(OCc5ccc(Cl)cc5)ccc3-4)CC2)cc1C(=O)O [Example 156, hydrochloride]
3. Nc1nc2c(c(N3CCN(CCCOCc4nnn[nH]4)CC3)n1)CCc1cc(OCc3ccc(Cl)cc3)ccc1-2 [Example 144, bis(trifluoroacetate)]
4. Nc1nc2c(c(N3CCN(CCOC[C@H]4C[C@@H](C(=O)O)O4)CC3)n1)CCc1cc(OCc3ccc(OC(F)(F)F)cc3)ccc1-2 (relative stereo) [Example 176]
5. Nc1nc2c(c(N3CCN(CCCCn4cc(C(=O)O)cn4)CC3)n1)CCc1cc(OCc3ccc(Cl)cc3)ccc1-2 [Example 132, dihydrochloride]

RESULT:
< 100 nM
< 100 nM
< 100 nM
< 100 nM
< 100 nM

Need Ki for each of these compounds.
1. Nc1nc2c(c(N3CCN(CCOC[C@H]4CC[C@@H](C(=O)O)C4)CC3)n1)CCc1cc(OCc3ccc(OC(F)(F)F)cc3)ccc1-2 (relative stereo) [Example 155]
2. Nc1nc2c(c(N3CCN(CCOCC45C6C7C4C4C5C6C74C(=O)O)CC3)n1)CCc1cc(OCc3ccc(Cl)cc3)ccc1-2 (centres unmarked) [Example 151, dihydrochloride]
3. Nc1nc2c(c(N3CCN(CCCCOC4CC(C(=O)O)C4)CC3)n1)CCc1cc(OCc3ccc(Cl)cc3)ccc1-2 (centres unmarked) [Example 141, dihydrochloride]
4. Nc1nc2c(c(N3CCN(CCOCc4cccc(C(=O)O)c4)CC3)n1)CCc1cc(OCc3ccc(Cl)cc3)ccc1-2 [15(b)]

RESULT:
1: < 100 nM; 2: < 100 nM; 3: < 100 nM; 4: < 100 nM
